- assay.system: recombinant LpxA enzyme (P. aeruginosa) (Pseudomonas aeruginosa, UniProt Q9X6P4)
- Sequence (Q9X6P4 whole entry): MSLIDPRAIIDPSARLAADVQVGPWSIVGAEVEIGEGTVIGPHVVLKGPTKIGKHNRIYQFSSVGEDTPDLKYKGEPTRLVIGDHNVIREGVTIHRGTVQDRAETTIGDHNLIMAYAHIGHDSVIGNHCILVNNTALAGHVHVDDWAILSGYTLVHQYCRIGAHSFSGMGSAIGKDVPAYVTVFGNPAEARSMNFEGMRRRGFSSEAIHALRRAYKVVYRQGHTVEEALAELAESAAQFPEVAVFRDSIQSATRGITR
- assay.info: LpxA in vitro substrate acylation assay with RapidFire MS analysis (P. aeruginosa)
- experimental.setup: P. aeruginosa enzyme 0.5 nM, PaACP-C10, 30 min
Reported IC50 values are given for each entry in this list.

Completed entries (count: 3):
>  <chemical.structure>
CCc1c(F)cc(F)cc1OCC(=O)N(Cc1ccc([N+](=O)[O-])cc1)Cc1nnc(N)o1

>  <IC50>
< 20 nM

$$$$
>  <chemical.structure>
Nc1nnc(CN(Cc2ccc([N+](=O)[O-])nc2)C(=O)COc2cc(F)cc(F)c2C2CC2)o1

>  <IC50>
20 to 100 nM

$$$$
>  <chemical.structure>
CS(=O)(=O)Nc1ccc(CN(Cc2nnc(N)o2)C(=O)CSc2ccccc2Cl)cc1

>  <IC50>
20 to 100 nM

$$$$

Query string: What does the record list as IC50 for "N#Cc1ccc(CN(Cc2nnc(N)o2)C(=O)CSc2ncccc2Cl)c(F)c1" ?
Result string: 20 to 100 nM

----------
- System: P. aeruginosa PAO397
- assay.info: Broth microdilution MIC, P. aeruginosa PAO397
- Assay type: cell-based
- experimental.setup: Pseudomonas aeruginosa, PAO397, 18 h, read-out: PAO397 KO MIC
measured.quantity: MIC

Completed entries (count: 2):
>  <molecule>
Cc1ncc(CN(Cc2ccc(C#N)cc2)C(=O)CSc2ccccc2Cl)[nH]1 [compound 75]

>  <MIC>
1 to 16 µg/mL

$$$$
>  <molecule>
Cc1nnc(CN(Cc2ccc(C#N)cc2)C(=O)CSc2ccccc2Cl)[nH]1 [compound 74]

>  <MIC>
1 to 16 µg/mL

$$$$

Query string: What does the record list as MIC for CCc1ccccc1SCC(=O)N(Cc1ccc(C#N)nc1)Cc1nnc(N)o1 [Compound No. 7] ?
Result string: < 1 µg/mL

Query string: Check N#Cc1ccc(CN(CC(=O)NC2CNC2)C(=O)CSc2ccccc2Cl)cc1 [compound 5] too.
Result string: 16 to 64 µg/mL

----------
Reported MIC values are given for each entry in this list.
- Test system: P. aeruginosa PAO397
- assay.info: Broth microdilution MIC, P. aeruginosa PAO397
- Format: cell-based
- experimental.setup: Pseudomonas aeruginosa, PAO397, 18 h, read-out: PAO397 KO MIC

>  <compound>
N#Cc1ccc(CN(Cc2nnc(N)o2)C(=O)CSc2cc(F)cc(F)c2Cl)cn1 [Compound No. 21]

>  <assay.system>
P. aeruginosa PAO397

>  <reported.result>
< 1 µg/mL

$$$$

Turning to the following compound.
Query string: What does the record list as MIC for CCc1c(F)cccc1OCC(=O)N(Cc1nnc(N)o1)Cc1ccc(C#N)cc1F [compound 41] ?
Result string: < 1 µg/mL

----------
- System: P. aeruginosa PAO397
- assay.info: Broth microdilution MIC, P. aeruginosa PAO397
- Assay type: cell-based
- experimental.setup: Pseudomonas aeruginosa, PAO397, 18 h, read-out: PAO397 KO MIC
Reported MIC values are given for each entry in this list.

Completed entries (count: 2):
>  <chemical.structure>
N#Cc1ccc(CN(Cc2nnc(N)o2)C(=O)CSc2ccccc2Cl)c(F)c1

>  <reported.result>
< 1 µg/mL

$$$$
>  <chemical.structure>
CCc1ccccc1OCC(=O)N(Cc1ccc(C#N)nc1)Cc1nnc(N)o1

>  <reported.result>
< 1 µg/mL

$$$$

Query string: API: value(readout=MIC, system=P. aeruginosa PAO397) for record "Nc1nnc(CN(Cc2ccc(OC3CCOCC3)cc2)C(=O)CSc2ccccc2Cl)o1"
Result string: < 1 µg/mL

Query string: Check "N#Cc1ccc(CN(CC(=O)N2CCNCC2)C(=O)CSc2ccccc2Cl)cc1" too.
Result string: 16 to 64 µg/mL

Query string: Check "N#Cc1cc(F)c(CN(Cc2nnc(N)o2)C(=O)CSc2cc(F)cc(F)c2Cl)c(F)c1" too.
Result string: < 1 µg/mL

Query string: Check "Nc1nnc(CN(Cc2ccc(S(N)(=O)=O)cc2)C(=O)CSc2cc(F)cc(F)c2Cl)o1" too.
Result string: < 1 µg/mL

Query string: Check "N#Cc1ccc(CN(Cc2cc[nH]n2)C(=O)CSc2ccccc2Cl)cc1" too.
Result string: 1 to 16 µg/mL

Query string: Check "N#Cc1ccc(CN(Cc2nnc(N)o2)C(=O)CSc2cc(F)ccc2Cl)cc1" too.
Result string: < 1 µg/mL

Query string: Check "Cc1cnc(CN(Cc2ccc(C#N)cc2)C(=O)CSc2ccccc2Cl)o1" too.
Result string: 1 to 16 µg/mL

Query string: Check "NCc1ccc(CN(Cc2nnc(N)o2)C(=O)CSc2ccccc2Cl)cc1" too.
Result string: 16 to 64 µg/mL

Query string: Check "N#Cc1ccc(CN(Cc2nnc(N)o2)C(=O)CSc2cc(OCCN)ccc2Cl)c(F)c1" too.
Result string: < 1 µg/mL

Query string: Check "N#Cc1ccc(CN(Cc2nnc(N)o2)C(=O)COc2cc(F)cc(F)c2Cl)cn1" too.
Result string: 1 to 16 µg/mL

Query string: Check "CCc1ccccc1SCC(=O)N(Cc1nnc(N)o1)Cc1ccc(C#N)cc1F" too.
Result string: < 1 µg/mL

Query string: Check "C[C@@H](Oc1ccccc1Cl)C(=O)N(Cc1ccc(C#N)cc1)Cc1nnc(N)o1" too.
Result string: < 1 µg/mL

Query string: Check "N#Cc1ccc(CN(Cc2nnc(N)o2)C(=O)CSc2ncccc2Cl)c(F)c1" too.
Result string: < 1 µg/mL

Query string: Check "N#Cc1ccc(CN(Cc2nnc(CN)o2)C(=O)CSc2ccccc2Cl)cc1" too.
Result string: 1 to 16 µg/mL

Query string: Check "Nc1nnc(CN(Cc2ccc(=O)[nH]c2)C(=O)CSc2ccccc2Cl)o1" too.
Result string: 1 to 16 µg/mL

----------
- Tested on: P. aeruginosa PAO397
- assay.info: Broth microdilution MIC, P. aeruginosa PAO397
- Type: cell-based
- experimental.setup: Pseudomonas aeruginosa, PAO397, 18 h, read-out: PAO397 KO MIC
Reported MIC values are given for each entry in this list.

Query string: What does the record list as MIC for "N#Cc1ccc(CN(Cc2nnc(N)o2)C(=O)CSc2cc(CO)ccc2Cl)cc1" ?
Result string: < 1 µg/mL

Query string: Check "CCc1ccccc1SCC(=O)N(Cc1ccc(C#N)cc1)Cc1nnc(N)[nH]1" too.
Result string: < 1 µg/mL

Query string: Check "N#Cc1ccc(CN(Cc2nnc(N)o2)C(=O)CSc2cc(-c3c[nH]cn3)ccc2Cl)c(F)c1" too.
Result string: 1 to 16 µg/mL

----------
- assay.system: recombinant LpxA enzyme (P. aeruginosa) (Pseudomonas aeruginosa, UniProt Q9X6P4)
- assay.info: LpxA in vitro substrate acylation assay with RapidFire MS analysis (P. aeruginosa)
- experimental.setup: P. aeruginosa enzyme 0.5 nM, PaACP-C10, 30 min
pIC50: −log10 of the molar value.
Reported pIC50 values are given for each entry in this list.

>  <compound>
Cc1ncc(CN(Cc2ccc(C#N)cc2)C(=O)CSc2ccccc2Cl)o1 [compound 73]

>  <pIC50>
6.00 to 7.00

$$$$
>  <compound>
CCc1cccc(OCC(=O)N(Cc2nnc(N)o2)Cc2ccc(C#N)cc2F)c1 [compound 110]

>  <pIC50>
6.00 to 7.00

$$$$
>  <compound>
N#Cc1ccc(CN(Cc2nnc(N)o2)C(=O)COc2ccccc2C(F)(F)F)cc1 [compound 33]

>  <pIC50>
7.00 to 7.70

$$$$
>  <compound>
Nc1nnc(CN(Cc2ccc(OC3CCOCC3)cc2)C(=O)CSc2ccccc2Cl)o1 [Compound No. 11]

>  <pIC50>
6.00 to 7.00

$$$$
>  <compound>
N#Cc1ccc(CN(Cc2nnc(O)o2)C(=O)CSc2cc(OCCN)ccc2Cl)c(F)c1 [compound 116]

>  <pIC50>
< 6.00

$$$$

Turning to the following compound.
Query string: What does the record list as pIC50 for CCc1ccccc1SCC(=O)N(Cc1ccc(C#N)nc1)Cc1nnc(N)o1 [Compound No. 7] ?
Result string: > 7.70

----------
Reported MIC values are given for each entry in this list.
- Tested on: P. aeruginosa PAO397
- assay.info: Broth microdilution MIC, P. aeruginosa PAO397
- Format: cell-based
- experimental.setup: Pseudomonas aeruginosa, PAO397, 18 h, read-out: PAO397 KO MIC

Completed entries (count: 3):
>  <compound>
Cc1ccccc1SCC(=O)N(Cc1ccc(C#N)nc1)Cc1nnc(N)o1 [compound 15]

>  <reported.result>
1 to 16 µg/mL

$$$$
>  <compound>
Cc1noc(CN(Cc2ccc(C#N)cc2)C(=O)CSc2ccccc2Cl)n1 [Compound No. 68]

>  <reported.result>
1 to 16 µg/mL

$$$$
>  <compound>
CCc1ccccc1SCC(=O)N(Cc1ccc(C#N)cc1)Cc1nnc(N)o1 [Compound No. 10]

>  <reported.result>
< 1 µg/mL

$$$$

Query string: What does the record list as MIC for N#Cc1ccc(CN(Cc2nnc(N)o2)C(=O)COc2cc(F)cc(F)c2Cl)c(F)c1 [Compound No. 31] ?
Result string: < 1 µg/mL
